Target: T1, Rat IL2Rγ extracellular domain expressed with a C-terminal myc-myc-hexahistidine tag (rat)
T1 construct: whole entry is the tagged construct; also called rIL-2Rg-MMH; rat IL-2Rg-MMH
T1 chain: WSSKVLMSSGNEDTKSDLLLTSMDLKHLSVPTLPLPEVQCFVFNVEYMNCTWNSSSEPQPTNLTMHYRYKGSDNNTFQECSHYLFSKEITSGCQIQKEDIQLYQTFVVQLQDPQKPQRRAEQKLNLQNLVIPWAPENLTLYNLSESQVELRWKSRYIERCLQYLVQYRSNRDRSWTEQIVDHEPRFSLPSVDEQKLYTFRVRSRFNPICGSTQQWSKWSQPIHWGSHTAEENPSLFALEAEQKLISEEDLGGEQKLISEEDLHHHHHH
Assay: SPR Biacore 4000, anti-hFc-captured mAb, 37 C
assay_metric: 100 nM Ag Bound (RU)
The response must be a number in RU with no trailing unit.

Examples from the recorded data:
| binder | 100 nM Ag Bound [RU] |
| --- | --- |
| H4H12857P (antibody, human IgG4 S228P, kappa, V domains shown, fully human anti-IL2Rgamma mAb, human IgG4 Fc; also called REGN9432) VH: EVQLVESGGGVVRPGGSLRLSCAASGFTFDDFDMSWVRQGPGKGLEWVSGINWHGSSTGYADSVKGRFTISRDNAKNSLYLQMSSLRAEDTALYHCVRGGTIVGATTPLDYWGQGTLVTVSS VL: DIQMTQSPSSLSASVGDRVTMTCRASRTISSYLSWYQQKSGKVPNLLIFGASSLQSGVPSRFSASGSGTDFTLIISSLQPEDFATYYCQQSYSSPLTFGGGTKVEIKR | 1 |
| H4H12899P (antibody, human IgG4 S228P, kappa, V domains shown, fully human anti-IL2Rgamma mAb, human IgG4 Fc) VH: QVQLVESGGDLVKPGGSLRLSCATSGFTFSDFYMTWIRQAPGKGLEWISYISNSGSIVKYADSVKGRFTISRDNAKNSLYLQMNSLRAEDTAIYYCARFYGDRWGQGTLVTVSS VL: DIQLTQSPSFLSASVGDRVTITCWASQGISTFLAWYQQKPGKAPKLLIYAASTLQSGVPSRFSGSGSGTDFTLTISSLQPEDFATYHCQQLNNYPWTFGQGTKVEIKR | 16 |

Would you kindly look at the next entry?
Look up 100 nM Ag Bound for this binder: H4H12889P (antibody, human IgG4 S228P, kappa, V domains shown, fully human anti-IL2Rgamma mAb, human IgG4 Fc; also called REGN7257) VH: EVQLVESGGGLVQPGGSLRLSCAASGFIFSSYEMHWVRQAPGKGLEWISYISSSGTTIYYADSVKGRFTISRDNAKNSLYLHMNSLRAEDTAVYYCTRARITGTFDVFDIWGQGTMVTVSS VL: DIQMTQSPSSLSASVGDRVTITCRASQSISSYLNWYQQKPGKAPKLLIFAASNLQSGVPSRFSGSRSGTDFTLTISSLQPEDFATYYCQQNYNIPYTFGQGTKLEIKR
2
